All values here come from patent US8388990B2.

details: buffer, pH 2.5
measurement-type: Percent of Initial Colorant Remaining 2 Hours after Mixing (%)

Consider the reported Percent of Initial Colorant Remaining 2 Hours after Mixing for these molecules:
[
  {
    "chemical-structure": "NCC(=O)O",
    "result-number": 61
  },
  {
    "chemical-structure": "NS(=O)(=O)O",
    "result-number": 97
  }
]

P. NCCO
Q. NCCN
Lookup: Between P and Q , whose recorded Percent of Initial Colorant Remaining 2 Hours after Mixing is greater? Selection: enter the item's label.
Found: Q

---

experiment: Assay for measuring the Reduced Chlorite Demand Factor (Example 9); assay type: physicochemical; conditions: stabilizer at 1.33 M; pH 2.5; five hours after mixing; versus control without stabilizer
measurement-type: Reduced Chlorite Demand Factor

[
  {
    "chemical-structure": "NCCN",
    "Reduced Chlorite Demand Factor": 4.0
  },
  {
    "chemical-structure": "NCCO",
    "Reduced Chlorite Demand Factor": 4.1
  },
  {
    "chemical-structure": "NC(N)=O",
    "Reduced Chlorite Demand Factor": 4.3
  }
]

I. NCC(=O)O
II. OCCNCCO
Lookup: Reduced Chlorite Demand Factor comparison. Which is larger, I or II ? Refer to your chosen entry by its label in the reply.
Found: I
(I: 3.8, II: 0.9)
